EXPERIMENT: Inhibition of type 1 collagen alpha1 polypeptide secretion in human lung fibroblasts incubated for 18 hrs followed by addition of fresh medium and measured after 3 hrs by Western blot analysis
Format: functional, tissue-based
ASSAY SETUP: Primary lung fibroblast
ENDPOINT: IC50 (µM)
Answer format: numeric, µM implied, no suffix.

Quick check: IC50 of CCCCCCCCCCCCCC(=O)N[C@H]1C[C@@H](C(N)=O)N(c2cc(N3CCN(C(=O)c4cc(C)cc(C)c4)CC3)ncn2)C1 ?
4.4

These data points were gathered from ChEMBL document CHEMBL4680378.
